# reported pEC50; entries follow
- assay.target: Melanocortin receptor 4 (Homo sapiens)
- Sequence (P32245 whole entry): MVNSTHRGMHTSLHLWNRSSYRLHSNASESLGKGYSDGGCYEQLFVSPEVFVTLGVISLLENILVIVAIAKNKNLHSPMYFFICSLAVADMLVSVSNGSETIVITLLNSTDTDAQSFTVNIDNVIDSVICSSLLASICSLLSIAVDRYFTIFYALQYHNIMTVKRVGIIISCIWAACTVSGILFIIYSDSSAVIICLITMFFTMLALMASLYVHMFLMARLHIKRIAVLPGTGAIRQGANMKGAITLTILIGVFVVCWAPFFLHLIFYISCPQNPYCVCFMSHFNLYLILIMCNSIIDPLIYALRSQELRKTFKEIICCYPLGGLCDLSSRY
- experimental.protocol: Effective concentration against human melanocortin receptor-4 expressed in 293 HEK cells
Where a SMILES comes first, the peptide text is derived from it. [ ]: non-standard residue; d: D form. Gly(N-(CH2)3-guanidino) = N=C(N)NCCCNCC(=O)O; Nle = CCCC[C@H](N)C(=O)O; Nphe = O=C(O)CNCc1ccccc1; NBuGly = CCCCNCC(=O)O; Nlys = NCCCCNCC(=O)O
Entry type: numeric. Quantity: pEC50, the -log10 of concentration in molar units.

- compound: "CCCC[C@H](NC(C)=O)C(=O)NCC(=O)N[C@@H](CCCCN)C(=O)N[C@H](Cc1ccccc1)C(=O)N[C@@H](CCCNC(=N)N)C(=O)N[C@@H](Cc1c[nH]c2ccccc12)C(=O)NCC(N)=O"
  readout.value: 9.30
- compound: "CCCC[C@H](NC(C)=O)C(=O)NCC(=O)N(CCCCN)CC(=O)N[C@H](Cc1ccccc1)C(=O)N[C@@H](CCCNC(=N)N)C(=O)N(CCc1c[nH]c2ccccc12)CC(=O)NCC(N)=O"
  readout.value: 5.70
- compound: "CCCC[C@H](NC(C)=O)C(=O)NCC(=O)N[C@@H](CCCCN)C(=O)N[C@H](Cc1ccccc1)C(=O)N(CCCNC(=N)N)CC(=O)N(CC(=O)NCC(N)=O)Cc1c[nH]c2ccccc12"
  readout.value: 6.80
- compound: "CCCC[C@H](NC(C)=O)C(=O)NCC(=O)N[C@@H](CCCCN)C(=O)N[C@H](Cc1ccccc1)C(=O)N[C@@H](CCCN=C(N)N)C(=O)N(CC(=O)NCC(N)=O)Cc1c[nH]c2ccccc12"
  readout.value: 6.80
- compound: "CCCCN(CC(=O)NCC(=O)N[C@@H](CCCCN)C(=O)N[C@H](Cc1ccccc1)C(=O)N(CCCN=C(N)N)CC(=O)N(CCc1c[nH]c2ccccc12)CC(=O)NCC(N)=O)C(C)=O"
  readout.value: 7.00

Form: compound = CCCCN(CC(=O)NCC(=O)N[C@@H](CCCCN)C(=O)N(CC(=O)N[C@@H](CCCN=C(N)N)C(=O)N[C@@H](Cc1c[nH]c2ccccc12)C(=O)NCC(N)=O)Cc1ccccc1)C(C)=O (Ac-[NBuGly]GK[Nphe]RWG-NH2) ; pEC50 = 5.70

Form: compound = CCCC[C@H](NC(C)=O)C(=O)NCC(=O)N[C@@H](CCCCN)C(=O)N[C@H](Cc1ccccc1)C(=O)N(CCCCN=C(N)N)CC(=O)N[C@@H](Cc1c[nH]c2ccccc12)C(=O)NCC(N)=O ; pEC50 = 6.60

Form: compound = CCCCN(CC(=O)NCC(=O)N[C@@H](CCCCN)C(=O)N[C@H](Cc1ccccc1)C(=O)N(CCCN=C(N)N)CC(=O)N[C@@H](Cc1c[nH]c2ccccc12)C(=O)NCC(N)=O)C(C)=O ; pEC50 = 6.10

Form: compound = CCCCN(CC(=O)NCC(=O)N(CCCCN)CC(=O)N[C@H](Cc1ccccc1)C(=O)N[C@@H](CCCNC(=N)N)C(=O)N[C@@H](Cc1c[nH]c2ccccc12)C(=O)NCC(N)=O)C(C)=O ; pEC50 = 7.20

Form: compound = CCCC[C@H](NC(C)=O)C(=O)NCC(=O)N(CCCCN)CC(=O)N[C@@H](Cc1ccccc1)C(=O)N(CCCN=C(N)N)CC(=O)N[C@@H](Cc1c[nH]c2ccccc12)C(=O)NCC(N)=O (Ac-[Nle]G[Nlys]F[Gly(N-(CH2)3-guanidino)]WG-NH2) ; pEC50 = 5.70
